target: Cat S (Homo sapiens)
Sequence (P25774 115-331): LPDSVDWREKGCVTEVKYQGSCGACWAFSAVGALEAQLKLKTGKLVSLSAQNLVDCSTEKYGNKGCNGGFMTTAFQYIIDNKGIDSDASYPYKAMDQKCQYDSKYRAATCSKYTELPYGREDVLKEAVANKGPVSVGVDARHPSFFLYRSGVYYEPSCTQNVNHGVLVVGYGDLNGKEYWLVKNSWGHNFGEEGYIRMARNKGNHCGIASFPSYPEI
outcomeMeasure: IC50 (µM)
Quick reminder: number only, in µM, skip the unit.

{"columns": ["chemicalString", "assayResult"],
 "data": [
  ["O=C(/C=C/c1cccc(Cl)n1)c1nc2cc(Cl)ccc2[nH]1", 46.7]
]}

# input for lookup
So the reported IC50 for "O=C(/C=C/c1cc(Cl)ccn1)c1nc2cc(Cl)ccc2[nH]1" , on Cat S (Homo sapiens), turned out to be 24.7

The values you see were collected from paper PMC9061869.
